# System: K-562 leukemia
# Measurement Notes: NCI-60 one-dose screen, 48 h (100 = growth as untreated, 0 = no growth, -100 = all killed)
# Reported Conditions: 10 µM unless noted
Compounds without any hit were thinned out: in the full panel of roughly 83,000, 20% have a hit. The source made the active and inactive calls. How the source made its calls: active means growth percent below 10; inactive means the rest.
Endpoint Name: growth

Solved entries:
-- ask Entry `CCn1c(SCC(=O)Nc2cccc(C(=O)/C=C/c3ccc(C)cc3)c2)nc2ccccc2c1=O` needs its growth filled in; supply it.
-- reply 55.4% (inactive)

-- ask Entry `N#Cc1cccc(CN2CCc3ncn(Cc4ccc(Cl)cc4)c(=O)c3C2)c1` needs its growth filled in; supply it.
-- reply 24.2% (inactive)

-- ask Entry `COc1cc(-c2nc3sccn3c2-c2ccnc(S(C)(=O)=O)n2)ccc1F` needs its growth filled in; supply it.
-- reply 89.6% (inactive)

-- ask Entry `C=C(C)[C@@H]1CC[C@]2(COC)CC[C@]3(C)[C@H](CC[C@@H]4[C@@]5(C)CCCNC(C)(C)[C@@H]5CC[C@]43C)[C@@H]12` needs its growth filled in; supply it.
-- reply -47.7% (active)

-- ask Entry `Cc1noc(C)c1CSc1nc2ccccc2n1-c1ccccc1` needs its growth filled in; supply it.
-- reply 88.6% (inactive)

Next:
-- ask Entry `CCCCCCCn1cc2c(N[C@H](C)c3ccccc3)ncnc2n1` needs its growth filled in; supply it.
-- reply 106% (inactive)

-- ask Entry `O=C(Nc1ccc(F)c(F)c1)c1cc(-c2ccc(F)cc2F)ccc1O` needs its growth filled in; supply it.
-- reply 12.2% (inactive)

-- ask Entry CC(=O)N1C(=S)NC(=O)C1CC(C)C (configuration not stated) needs its growth filled in; supply it.
-- reply 106% (inactive)

-- ask Entry `C=C(C=O)[C@@H]1CC[C@]2(CO)CC[C@]3(C)[C@H](CC[C@@H]4[C@@]5(C)CCCNC(C)(C)[C@@H]5CC[C@]43C)[C@@H]12` needs its growth filled in; supply it.
-- reply -1.23% (active)

-- ask Entry `NC(N)=Nc1ccc(Oc2cccc(Nc3ccc(Cl)c(C(F)(F)F)c3)c2)cn1` needs its growth filled in; supply it.
-- reply -43.5% (active)

-- ask Entry O=C1CCC(N2C(=O)c3ccc(NS(=O)(=O)c4ccccc4OC(F)(F)F)cc3C2=O)C(=O)N1 (configuration not stated) needs its growth filled in; supply it.
-- reply 65.8% (inactive)

-- ask Entry COc1cc2nc(Cl)nc(Nc3cccc(C4=Nc5c(N)nc(N)nc5NC(c5ccc6c(c5)OCO6)C4)c3)c2cc1OC (configuration not stated) needs its growth filled in; supply it.
-- reply 4.53% (active)

====

# Test system: OVCAR-5 ovarian
# Measurement Notes: NCI-60 one-dose screen, 48 h (100 = growth as untreated, 0 = no growth, -100 = all killed)
# Reported Conditions: 10 µM unless noted
# Protocol: Growth inhibition of the OVCAR-5 human tumor cell line is measured as a screen for anti-cancer activity. Cells are grown in 96 well plates and exposed to the test compound for 48 hours. Compounds are tested at a single concentration, which is 10^-5 M for most compounds. The reported endpoint is percent growth (GI% or GIPRCNT), where numbers from 0 - 100% represent growth inhibition, and numbers from -100% - 0 represent cell death. For example, a value of 40 represents 60% growth inhibition. […]
This is part of a sample that, as a whole, favours compounds with a hit. Of some 83,000 tested, about 20% had one in any assay.
Binary label based on growth with cut-off 90%: below gives yes, not below gives no.

-- ask Confirm or reject: growth of `CCCCCc1ccc(S(=O)(=O)Nc2cccc(-c3csc(NC(=O)CNCCN(C)C)n3)c2)cc1` lies strictly below 90%
-- reply no

-- ask Confirm or reject: growth of `O=C(Cn1c(-c2ccccc2)nc2cc(Cl)c(Cl)cc21)N=Nc1c(O)[nH]c2ccc(Cl)cc12` lies strictly below 90%
-- reply yes

-- ask Confirm or reject: growth of `Oc1ccc(CSc2nnc(-c3ccc(Cl)cc3)n2-c2ccccc2)c2cccnc12` lies strictly below 90%
-- reply yes

-- ask Confirm or reject: growth of `NC(N)=Nc1ccc(Oc2cccc(Nc3ccc(Br)c(C(F)(F)F)c3)c2)cc1` lies strictly below 90%
-- reply yes

-- ask Confirm or reject: growth of CCCn1cnc2c(c1=N)C(c1ccc(Cl)cc1)c1sc3c(C)cccc3c1O2 (stereo unspecified) lies strictly below 90%
-- reply yes

Next:
-- ask Confirm or reject: growth of `Cc1occc1-c1nc2s/c(=C/c3ccc(-c4cc(C(F)(F)F)ccc4Cl)o3)c(=O)n2n1` lies strictly below 90%
-- reply no

-- ask Confirm or reject: growth of `CCOC(=O)c1c(Nc2ccccc2)nn2c(-c3ccccc3)ccnc12` lies strictly below 90%
-- reply no

-- ask Confirm or reject: growth of `C=C1CC[C@@H]2[C@](C)(CO)[C@H](O)CC[C@@]2(C)[C@@H]1C/C(O)=C1\CCOC1=O` lies strictly below 90%
-- reply no

-- ask Confirm or reject: growth of CNc1ncc2cc(-c3ccc(-c4ncccc4F)cc3Cl)c(=O)n(CC3OCC(N)CO3)c2n1 (stereo unspecified) lies strictly below 90%
-- reply yes

-- ask Confirm or reject: growth of `COc1cc(/C=C2\C(=O)Nc3ccccc32)ccc1OCc1ccc(F)cc1` lies strictly below 90%
-- reply no

-- ask Confirm or reject: growth of `O=C(Nc1cccc(Cl)c1)Nc1nc2ccc([N+](=O)[O-])cc2o1` lies strictly below 90%
-- reply yes

-- ask Confirm or reject: growth of `O=C(NNc1nc2cc(F)cc(F)c2n2cccc12)c1cnccn1` lies strictly below 90%
-- reply yes

-- ask Confirm or reject: growth of CCO/C=N/C1=C(C#N)C(c2ccc(F)cc2)c2sc3c(CC)cccc3c2O1 (stereo unspecified) lies strictly below 90%
-- reply yes

====

Listing of entries alongside the reported growth.
# System: SR leukemia
# Measurement Notes: NCI-60 one-dose screen, 48 h (100 = growth as untreated, 0 = no growth, -100 = all killed)
# Reported Conditions: 10 µM unless noted
This is part of a sample that, as a whole, favours compounds with a hit. Of some 83,000 tested, about 20% had one in any assay.
Your answer should be a plain number; it is taken to be in %.

Solved entries:
-- ask Entry `O=C(CN1CCN(c2cc(=O)n(-c3ccccc3)c3ccccc23)CC1)Nc1ccc(F)cc1` needs its growth filled in; supply it.
-- reply 76.4

-- ask Entry `CCn1c(SCC(=O)Nc2cccc(C(=O)/C=C/c3ccccc3Cl)c2)nc2ccccc2c1=O` needs its growth filled in; supply it.
-- reply 52.2

-- ask Entry `C#CCOC(=O)[C@@H]1CCCN1CC#C` needs its growth filled in; supply it.
-- reply 95.5

Next:
-- ask Entry `Cn1cc(-c2nc(N)nnc2-c2c[nH]c3ccccc23)c2cc(Br)ccc21` needs its growth filled in; supply it.
-- reply 26.7

-- ask Entry `CC(=O)c1ccc(Nc2nc(SCC(C)C)nc(-c3ccc(F)cc3)c2C#N)cc1` needs its growth filled in; supply it.
-- reply 102

-- ask Entry `CC1(C)CC[C@]2(C(=O)N3CCOCC3)CC[C@]3(C)C(=CC[C@@H]4[C@@]5(C)C/C(=C/c6ccccn6)C(=O)C(C)(C)[C@@H]5CC[C@]43C)[C@@H]2C1` needs its growth filled in; supply it.
-- reply 22.5

-- ask Entry `NC(N)=Nc1ccc(Oc2cccc(Nc3ccc(Br)c(C(F)(F)F)c3)c2)cc1` needs its growth filled in; supply it.
-- reply -43.5

====

# Tested on: HCT-116 colon
# Measurement Notes: NCI-60 one-dose screen, 48 h (100 = growth as untreated, 0 = no growth, -100 = all killed)
# Reported Conditions: 10 µM unless noted
Compounds without any hit were thinned out: in the full panel of roughly 83,000, 20% have a hit. The source made the active and inactive calls. Rule for the calls: active = growth percent below 10; inactive = the rest.
Endpoint Name: growth

-- ask Entry `O=C1/C(=C/C=C/c2ccco2)SC(=S)N1c1ccccc1` needs its growth filled in; supply it.
-- reply 35.3% (inactive)

-- ask Entry `O=C(NNc1nc2cc(F)ccc2n2c(CN3CCCC3)ccc12)c1cnccn1` needs its growth filled in; supply it.
-- reply 11.1% (inactive)

Consider the additional molecule presented here.
-- ask Entry `CCn1c(SCC(=O)Nc2cccc(C(=O)/C=C/c3ccc(C)cc3)c2)nc2ccccc2c1=O` needs its growth filled in; supply it.
-- reply 10.8% (inactive)

====

# Tested on: SK-MEL-28 melanoma
# Measurement Notes: NCI-60 one-dose screen, 48 h
# Reported Conditions: 10 µM unless noted
Compounds without any hit were thinned out: in the full panel of roughly 83,000, 20% have a hit. Activity calls are given as the source filed them. Rule for the calls: active = growth percent below 10; inactive = the rest.
API: response.call in yes = active, no = inactive

Study these solved cases before continuing.
-- ask Status in this test for CCNC(=O)N1CCc2cc(OC)c(OCCc3ccc(OC)nc3)cc2C1c1ccc(OC)cc1C (stereo not given) ?
-- reply no

-- ask Status in this test for `COc1cc2oc(-c3cccc(N)c3)cc(=O)c2c(OC)c1OC` ?
-- reply no

-- ask Status in this test for `C=C(C=O)[C@@H]1CC[C@]2(C)[C@H](C(=O)C=C3[C@H]4C[C@](C)(C(=O)OC)CC[C@]4(C)CC[C@]32C)[C@@]1(C)CCC#N` ?
-- reply yes

Next:
-- ask Status in this test for `COc1ccc(NC(=O)Nc2ccc3c(ccn3C(=O)c3cccc(F)c3)c2)cc1` ?
-- reply no

-- ask Status in this test for C=C(C=O)[C@@H]1CC[C@]2(COC(C)=O)CC[C@]3(C)C(CC[C@@H]4[C@@]5(C)CC[C@H](OC(C)=O)C(C)(C)[C@@H]5CC[C@]43C)[C@@H]12 (stereo not given in full) ?
-- reply yes
